B1: RHOBTB3 (parent)
chain: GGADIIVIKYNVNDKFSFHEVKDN

Variants of: B1
Experiment: protein stability index of a GFP-peptide fusion (GPS, HEK-293T) (PSI 1-6); higher = more stable;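 note: lentivirally expressed fusions sorted by FACS into six bins by GFP to DsRed ratio, PSI derived from sequencing read proportions per bin multiplied by bin number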
Details: c terminus: a fixed tail appended
Dear colleague, classification is by protein stability index, with ranges listed here: bottom end = under 2, midrange = from 2 up to 3, top end = 3 and over

>  <MUTANT>
Y10R

>  <CATEGORY LABEL>
midrange

$$$$
>  <MUTANT>
V7Q

>  <CATEGORY LABEL>
midrange

$$$$
>  <MUTANT>
V7E

>  <CATEGORY LABEL>
top end

$$$$
>  <MUTANT>
D14M

>  <CATEGORY LABEL>
bottom end

$$$$
>  <MUTANT>
F18H

>  <CATEGORY LABEL>
bottom end

$$$$
>  <MUTANT>
F16N

>  <CATEGORY LABEL>
bottom end

$$$$
>  <MUTANT>
N13T

>  <CATEGORY LABEL>
bottom end

$$$$
>  <MUTANT>
I5K

>  <CATEGORY LABEL>
midrange

$$$$
>  <MUTANT>
D23C

>  <CATEGORY LABEL>
midrange

$$$$
>  <MUTANT>
H19T

>  <CATEGORY LABEL>
midrange

$$$$
>  <MUTANT>
I5E

>  <CATEGORY LABEL>
top end

$$$$
>  <MUTANT>
N11R

>  <CATEGORY LABEL>
midrange

$$$$
>  <MUTANT>
K22V

>  <CATEGORY LABEL>
top end

$$$$
>  <MUTANT>
D23G

>  <CATEGORY LABEL>
midrange

$$$$
>  <MUTANT>
V21M

>  <CATEGORY LABEL>
top end

$$$$
>  <MUTANT>
G1L

>  <CATEGORY LABEL>
midrange

$$$$
>  <MUTANT>
G2R

>  <CATEGORY LABEL>
midrange

$$$$
>  <MUTANT>
I5W

>  <CATEGORY LABEL>
midrange

$$$$
>  <MUTANT>
I6S

>  <CATEGORY LABEL>
top end

$$$$
>  <MUTANT>
D4T

>  <CATEGORY LABEL>
top end

$$$$
>  <MUTANT>
G1S

>  <CATEGORY LABEL>
top end

$$$$
>  <MUTANT>
V7G

>  <CATEGORY LABEL>
midrange

$$$$
>  <MUTANT>
F18K

>  <CATEGORY LABEL>
bottom end

$$$$
